test system: 648629-189-R-J1-PDC complex spheroids viability; assay: Anticancer human tumor 648629-189-R-J1-PDC patient-derived bladder carcinoma cell line growth inhibition [CLK]; conditions: second compound 10 µM; first compound 0.0316 µM; stronger effect = lower value
viability, T/C values for the molecules below.
reported-metric: viability, T/C (%)

• COc1ccc([C@@H](O)c2cc(-c3ncnc4cc(N5CCOCC5)ccc34)c(F)cc2Cl)nn1 + CN1CCN(c2cc(C(=O)Nc3cc4cc(-c5cnn(C)c5)ccc4cn3)ccn2)CC1 = 0.07
• CCCS(=O)(=O)Nc1ccc(F)c(C(=O)c2c[nH]c3ncc(-c4ccc(Cl)cc4)cc23)c1F + CNC(=O)c1ccc(Nc2nc(OC3CCCC3)c3c(-c4ccc5nc(C)oc5c4)c[nH]c3n2)c(OC)c1 = 20.6
• O=c1[nH]cc(F)c(=O)[nH]1 + CNC(=O)c1ccc(Nc2nc(OC3CCCC3)c3c(-c4ccc5nc(C)oc5c4)c[nH]c3n2)c(OC)c1 = 17.8
• Nc1ccccc1NC(=O)c1ccc(CNC(=O)OCc2cccnc2)cc1 + CNC(=O)c1ccc(Nc2nc(OC3CCCC3)c3c(-c4ccc5nc(C)oc5c4)c[nH]c3n2)c(OC)c1 = 21.7
• CC(=O)O[C@H]1C(=O)[C@@]2(C)[C@H]([C@H](OC(=O)c3ccccc3)[C@]3(O)C[C@H](OC(=O)[C@H](O)[C@@H](NC(=O)c4ccccc4)c4ccccc4)C(C)=C1C3(C)C)[C@]1(OC(C)=O)CO[C@@H]1C[C@@H]2O + CNC(=O)c1ccc(Nc2nc(OC3CCCC3)c3c(-c4ccc5nc(C)oc5c4)c[nH]c3n2)c(OC)c1 = 39.9

---

tested on: 648629-189-R-J1-PDC complex spheroids viability; assay: Anticancer human tumor 648629-189-R-J1-PDC cell line growth inhibition [CLK]; conditions: second compound 10 µM; first compound 10 µM; stronger effect = lower value;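 on viability, T/C: drug exposure lasted seven days before viability readout; 100% = DMSO vehicle control wells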
reported-metric: viability, T/C

- C=C(F)C(=O)N1CCN(c2nc(OCC3CCCN3C)nc3c2CCN(c2cccc4cccc(Cl)c24)C3)CC1CC#N (stereo not drawn) + CNC(=O)c1ccc(Nc2nc(OC3CCCC3)c3c(-c4ccc5nc(C)oc5c4)c[nH]c3n2)c(OC)c1: 0.26%
- CCCS(=O)(=O)Nc1ccc(F)c(C(=O)c2c[nH]c3ncc(-c4ccc(Cl)cc4)cc23)c1F + CNC(=O)c1ccc(Nc2nc(OC3CCCC3)c3c(-c4ccc5nc(C)oc5c4)c[nH]c3n2)c(OC)c1: 8.45%
- CCCS(=O)(=O)Nc1ccc(F)c(C(=O)c2c[nH]c3ncc(-c4ccc(Cl)cc4)cc23)c1F + CN1CCN(c2cc(C(=O)Nc3cc4cc(-c5cnn(C)c5)ccc4cn3)ccn2)CC1: 0.25%

---

Consider the following compounds and their measured IC50 readings.
system: 648629-189-R-J1-PDC complex spheroids viability; test: Anticancer human tumor 648629-189-R-J1-PDC cell line growth inhibition [CLK]; settings: curve of first compound; second compound 0.0316 µM
reported-metric: IC50 (µM)

- CC(Nc1ccc2c(c1)OCCn1cc(N3C(=O)OCC3C(F)F)nc1-2)C(N)=O (stereo not given) + CN1CCN(c2cc(C(=O)Nc3cc4cc(-c5cnn(C)c5)ccc4cn3)ccn2)CC1: 8.56
- COc1ccc([C@@H](O)c2cc(-c3ncnc4cc(N5CCOCC5)ccc34)c(F)cc2Cl)nn1 + CN1CCN(c2cc(C(=O)Nc3cc4cc(-c5cnn(C)c5)ccc4cn3)ccn2)CC1: 7.78
- COc1c(OCCCN2CCOCC2)ccc2c3n(c(=NC(=O)c4cnc(N)nc4)nc12)CCN3 + CNC(=O)c1ccc(Nc2nc(OC3CCCC3)c3c(-c4ccc5nc(C)oc5c4)c[nH]c3n2)c(OC)c1: 0.0928

---

system: 648629-189-R-J1-PDC complex spheroids viability; assay: Anticancer human tumor 648629-189-R-J1-PDC cell line growth inhibition [CLK]; conditions: curve of first compound; second compound 0.316 µM
pIC50: −log10 of the molar value.
reported-metric: pIC50

* C#Cc1c(F)ccc2cc(O)cc(-c3ncc4c(N5CC6CCC(C5)N6)nc(OCC56CCCN5CC(F)C6)nc4c3F)c12 (stereo not given) + CNC(=O)c1ccc(Nc2nc(OC3CCCC3)c3c(-c4ccc5nc(C)oc5c4)c[nH]c3n2)c(OC)c1 | > 7.50
* COc1ccc([C@@H](O)c2cc(-c3ncnc4cc(N5CCOCC5)ccc34)c(F)cc2Cl)nn1 + CNC(=O)c1ccc(Nc2nc(OC3CCCC3)c3c(-c4ccc5nc(C)oc5c4)c[nH]c3n2)c(OC)c1 | > 7.50
* O=C(c1cc(Cc2n[nH]c(=O)c3ccccc23)ccc1F)N1CCN(C(=O)C2CC2)CC1 + CNC(=O)c1ccc(Nc2nc(OC3CCCC3)c3c(-c4ccc5nc(C)oc5c4)c[nH]c3n2)c(OC)c1 | > 7.50
* CCN1CCN(Cc2ccc(Nc3ncc(F)c(-c4cc(F)c5nc(C)n(C(C)C)c5c4)n3)nc2)CC1 + CN1CCN(c2cc(C(=O)Nc3cc4cc(-c5cnn(C)c5)ccc4cn3)ccn2)CC1 | > 8.50
* CCCS(=O)(=O)Nc1ccc(F)c(C(=O)c2c[nH]c3ncc(-c4ccc(Cl)cc4)cc23)c1F + CN1CCN(c2cc(C(=O)Nc3cc4cc(-c5cnn(C)c5)ccc4cn3)ccn2)CC1 | > 7.50
* CCN1CCN(Cc2ccc(Nc3ncc(F)c(-c4cc(F)c5nc(C)n(C(C)C)c5c4)n3)nc2)CC1 + CNC(=O)c1ccc(Nc2nc(OC3CCCC3)c3c(-c4ccc5nc(C)oc5c4)c[nH]c3n2)c(OC)c1 | > 8.50
* CCc1c2c(nc3ccc(O)cc13)-c1cc3c(c(=O)n1C2)COC(=O)[C@]3(O)CC + CNC(=O)c1ccc(Nc2nc(OC3CCCC3)c3c(-c4ccc5nc(C)oc5c4)c[nH]c3n2)c(OC)c1 | > 8.50
* COc1cccc2c1C(=O)c1c(O)c3c(c(O)c1C2=O)CC(O)(C(=O)CO)CC3OC1CC(N)C(O)C(C)O1 (stereo not given) + CN1CCN(c2cc(C(=O)Nc3cc4cc(-c5cnn(C)c5)ccc4cn3)ccn2)CC1 | > 7.50
* C=CC(=O)Nc1cc(Nc2nccc(-c3cn(C)c4ccccc34)n2)c(OC)cc1N(C)CCN(C)C + CNC(=O)c1ccc(Nc2nc(OC3CCCC3)c3c(-c4ccc5nc(C)oc5c4)c[nH]c3n2)c(OC)c1 | > 9.02
* C=CC(=O)Nc1cc(Nc2nccc(-c3cn(C)c4ccccc34)n2)c(OC)cc1N(C)CCN(C)C + CN1CCN(c2cc(C(=O)Nc3cc4cc(-c5cnn(C)c5)ccc4cn3)ccn2)CC1 | > 9.02

---

Catalogue of IC50 readings, one per entry.
Test system: 648629-189-R-J1-PDC complex spheroids viability
Assay: Anticancer human tumor 648629-189-R-J1-PDC cell line growth inhibition [CLK]
Conditions: curve of first compound; second compound 0.1 µM
Description: A high-throughput screen of multi-cell type tumor spheroids was designed to identify active combinations of […] and targeted small molecules. Complex spheroids include a stromal component modeled by human endothelial cells (HUVEC) and fibroblasts modeled by human mesenchymal stem cells (MSCs). […] Compounds. […] If the clinical Cmax for an agent had not been determined, the highest concentration tested was 10 microM. […]
reported-metric: IC50

* CC(=O)O[C@H]1C(=O)[C@@]2(C)[C@H]([C@H](OC(=O)c3ccccc3)[C@]3(O)C[C@H](OC(=O)[C@H](O)[C@@H](NC(=O)c4ccccc4)c4ccccc4)C(C)=C1C3(C)C)[C@]1(OC(C)=O)CO[C@@H]1C[C@@H]2O + CNC(=O)c1ccc(Nc2nc(OC3CCCC3)c3c(-c4ccc5nc(C)oc5c4)c[nH]c3n2)c(OC)c1 | < 31.6 nM
* CC1COCCN1c1cc(C2(S(C)(=N)=O)CC2)nc(-c2ccnc3[nH]ccc23)n1 (stereo not given) + CN1CCN(c2cc(C(=O)Nc3cc4cc(-c5cnn(C)c5)ccc4cn3)ccn2)CC1 | 3950 nM
* CC(C)CC(NC(=O)C(Cc1ccccc1)NC(=O)c1cnccn1)B(O)O (stereo not given) + CN1CCN(c2cc(C(=O)Nc3cc4cc(-c5cnn(C)c5)ccc4cn3)ccn2)CC1 | 4.8 nM
* CCCS(=O)(=O)Nc1ccc(F)c(C(=O)c2c[nH]c3ncc(-c4ccc(Cl)cc4)cc23)c1F + CN1CCN(c2cc(C(=O)Nc3cc4cc(-c5cnn(C)c5)ccc4cn3)ccn2)CC1 | 7250 nM
* C=CC(=O)Nc1cc(Nc2nccc(-c3cn(C)c4ccccc34)n2)c(OC)cc1N(C)CCN(C)C + CN1CCN(c2cc(C(=O)Nc3cc4cc(-c5cnn(C)c5)ccc4cn3)ccn2)CC1 | > 300 nM
* CCN1CCN(Cc2ccc(Nc3ncc(F)c(-c4cc(F)c5nc(C)n(C(C)C)c5c4)n3)nc2)CC1 + CNC(=O)c1ccc(Nc2nc(OC3CCCC3)c3c(-c4ccc5nc(C)oc5c4)c[nH]c3n2)c(OC)c1 | > 1000 nM
* Cn1ncnc1[C@H]1c2n[nH]c(=O)c3cc(F)cc(c23)N[C@@H]1c1ccc(F)cc1 + CNC(=O)c1ccc(Nc2nc(OC3CCCC3)c3c(-c4ccc5nc(C)oc5c4)c[nH]c3n2)c(OC)c1 | > 100 nM
* C=CC(=O)N1CCN(c2nc(=O)n(-c3c(C)ccnc3C(C)C)c3nc(-c4c(O)cccc4F)c(F)cc23)C(C)C1 (stereo not given) + CN1CCN(c2cc(C(=O)Nc3cc4cc(-c5cnn(C)c5)ccc4cn3)ccn2)CC1 | > 10000 nM
* CCN1CCN(Cc2ccc(Nc3ncc(F)c(-c4cc(F)c5nc(C)n(C(C)C)c5c4)n3)nc2)CC1 + CN1CCN(c2cc(C(=O)Nc3cc4cc(-c5cnn(C)c5)ccc4cn3)ccn2)CC1 | > 1000 nM
* Nc1ccccc1NC(=O)c1ccc(CNC(=O)OCc2cccnc2)cc1 + CN1CCN(c2cc(C(=O)Nc3cc4cc(-c5cnn(C)c5)ccc4cn3)ccn2)CC1 | 1840 nM
